Molecular target: Kras and SOS1 (biotin-tagged human Kras loaded with GDP, His-tagged human SOS1) (Homo sapiens, UniProt P01116, G12D)
Construct: made in house; host or cells: E. coli (stated for Kras only)
Sequence (P01116 1-188 isoform P01116-2 G12D): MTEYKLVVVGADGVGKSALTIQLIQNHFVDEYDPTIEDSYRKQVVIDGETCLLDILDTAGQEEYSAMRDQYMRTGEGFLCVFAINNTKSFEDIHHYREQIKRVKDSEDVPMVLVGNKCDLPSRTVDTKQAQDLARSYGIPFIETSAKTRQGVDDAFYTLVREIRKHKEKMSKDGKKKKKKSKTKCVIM
Test: Protein-protein interaction inhibition between Kras and SOS1 (KrasGl2D-SOS PPI) using AlphaScreen
Type: binding
Settings: AlphaScreen; biotin-tagged human Kras loaded with GDP, His-tagged human SOS1; read-out: KRAS G12D-SOS PPI IC50
Experimental: Protein-Protein Interaction Inhibition Between Kras and SOS1 (KrasGl2D-SOS PPI) Using AlphaScreen Protein-protein interaction inhibition (PPI) between Kras and SOS1 was measured by energy transfer from nickel-conjugated donor beads to streptavidin-conjugated acceptor beads using biotin-tagged human Kras expressed in E. coli and loaded with GDP after purification and His-tagged human SOS1 enzyme. […]
Starred links: 1 amine or outer side, 2 acyl side, 3 side chain; linkers in the order of their positions; H or OH if unused. Positions of bridges follow the written chain, without caps; N, C: chain ends. Non-standard residues stand in square brackets, D forms with d. Residues, ends and D or L forms follow the SMILES beside them. *: point of attachment. hPhe(3-Cl-4-CF3) = N[C@@H](CCc1ccc(C(F)(F)F)c(Cl)c1)C(=O)O; NMePhe(4-CF3) = CN[C@@H](Cc1ccc(C(F)(F)F)cc1)C(=O)O; NMePhe(4-Me) = CN[C@@H](Cc1ccc(C)cc1)C(=O)O; NMedβ3hAla = C[C@H](CC(=O)[*:2])N(C)[*:1]; NMeGly(cPent) = CN[C@H](C(=O)O)C1CCCC1; Phe(3-I) = N[C@@H](Cc1cccc(I)c1)C(=O)O; Pro(4,4-F2) = O=C(O)[C@@H]1CC(F)(F)CN1; NMeAla(cPr) = CN[C@@H](CC1CC1)C(=O)O; NMeGly(cBu) = CN[C@H](C(=O)O)C1CCC1; NMeCha = CN[C@@H](CC1CCCCC1)C(=O)O; Azetidine(3,3-F2) = FC1(F)CN(*)C1; NMeChg = CN[C@H](C(=O)O)C1CCCCC1; NMeD = CN[C@@H](CC(=O)O)C(=O)O; NMeL = CN[C@@H](CC(C)C)C(=O)O; d(β3hA) = C[C@@H](N)CC(=O)O; NMeA = CN[C@@H](C)C(=O)O; NMeAib = CNC(C)(C)C(=O)O; Piperidide = C1CCN(*)CC1; Pra = C#CC[C@H](N)C(=O)O; Pyrrolidide = C1CCN(*)C1; Ac5c = NC1(C(=O)O)CCCC1; Aze = O=C(O)[C@@H]1CCN1; Sar = CNCC(=O)O; Propyl = CCC*
Would you mind telling me the reported log10(IC50) of each entry?
// units: nM (pre-log); metric: IC50; scale: log10

-- ask Could you share which log10(IC50) value was measured for CC[C@H](C)[C@@H]1NC(=O)[C@H](CC(C)C)N(C)C(=O)C[C@@H](C)NC(=O)[C@H](C2CCCC2)N(C)C(=O)C2(CCCC2)NC(=O)[C@H](C)NC(=O)[C@H](CCc2ccc(C(F)(F)F)c(Cl)c2)NC(=O)CN(C)C(=O)[C@H](Cc2ccc(C)cc2)N(C)C(=O)[C@@H]2CCN2C(=O)[C@H](C)N(C)C1=O [Compound 1307] (cyclo(A[Ac5c][NMeGly(cPent)][d(β3hA)][NMeL]I[NMeA][Aze][NMePhe(4-Me)][Sar][hPhe(3-Cl-4-CF3)])) ?
-- reply 0.43

-- ask Sample C#CC[C@@H]1NC(=O)[C@H](Cc2cccc(I)c2)NC(=O)CN(C)C(=O)[C@H](Cc2ccc(C(F)(F)F)cc2)N(C)C(=O)[C@@H]2CCN2C(=O)[C@H](C)N(C)C(=O)[C@H]([C@@H](C)CC)NC(=O)[C@H](CC(C)C)N(C)C(=O)C[C@@H](C(=O)N2CCCCC2)N(C)C(=O)[C@H](CC(C)C)NC(=O)C(C)(C)N(C)C1=O [Compound 1258] ([NMeL]I[NMeA][Aze][NMePhe(4-CF3)][Sar][Phe(3-I)][Pra][NMeAib]L[NMeD]-Piperidide; lactam N-11) — what was its log10(IC50)?
-- reply 1.41

-- ask // log10(IC50) lookup, key: CC[C@H](C)[C@@H]1NC(=O)[C@H](C2CCC2)N(C)C(=O)C[C@@H](C(=O)N2CCCC2)N(C)C(=O)[C@H](C2CCCCC2)N(C)C(=O)C2(CCCC2)NC(=O)[C@@H]2CC(F)(F)CN2C(=O)[C@H](CCc2ccc(C(F)(F)F)c(Cl)c2)NC(=O)CN(C)C(=O)[C@H](CC2CCCCC2)N(C)C(=O)CN(C)C(=O)CN(C)C1=O [Compound 1363] ([NMeGly(cBu)]I[Sar][Sar][NMeCha][Sar][hPhe(3-Cl-4-CF3)][Pro(4,4-F2)][Ac5c][NMeChg][NMeD]-Pyrrolidide; lactam N-11)
-- reply -0.24

-- ask Given CC[C@H](C)[C@@H]1NC(=O)[C@H](CC(C)C)N(C)C(=O)C[C@@H](C)N(C)C(=O)[C@H](CC2CC2)N(C)C(=O)C2(CCCC2)NC(=O)[C@@H]2CCCN2C(=O)[C@H](CCc2ccc(C(F)(F)F)c(Cl)c2)NC(=O)CN(C)C(=O)[C@H](CC2CCCCC2)N(C)C(=O)CN(C)C(=O)CN(C)C1=O [Compound 1019] (cyclo([Ac5c][NMeAla(cPr)][NMedβ3hAla][NMeL]I[Sar][Sar][NMeCha][Sar][hPhe(3-Cl-4-CF3)]P)) , state its recorded log10(IC50).
-- reply 1.15

-- ask I would be grateful if you could share the reported log10(IC50) for CCCOC[C@@H]1NC(=O)[C@H](CC(=O)N2CC(F)(F)C2)N(C)C(=O)[C@H](CCc2ccc(C(F)(F)F)c(Cl)c2)NC(=O)CN(C)C(=O)[C@H](CC2CCCCC2)N(C)C(=O)[C@@H]2CCN2C(=O)[C@H](C)N(C)C(=O)[C@H]([C@@H](C)CC)NC(=O)[C@H](CC(C)C)N(C)C(=O)C[C@@H](C(=O)N(C)C)N(C)C(=O)[C@H](C2CCCC2)N(C)C1=O [Compound 41] ([NMeL]I[NMeA][Aze][NMeCha][Sar][hPhe(3-Cl-4-CF3)][NMeD](Azetidine(3,3-F2))S(Propyl)[NMeGly(cPent)][NMeD]-NMe2; lactam N-11) .
-- reply 1.04
